- assay-text: logP determination through HPLC (EEC directive 79/831 Annex V. A8, gradient method, acetonitrile/0.1% aqueous phosphoric acid)
- Assay type: physicochemical
- assay-context: Table 1, compounds of formula (I); HPLC gradient method, acetonitrile/0.1% aqueous phosphoric acid
assay-readout: logP

* CC(C)C(C)Nc1c(-c2ncncc2Cl)c(Cl)nc2nc(C3CC3)nn12 (stereo not drawn) [Example 37] | 2.95
* CC(Nc1c(-c2ncncc2F)c(Cl)nc2nc(C3CC3)nn12)C(C)(C)C (stereo not drawn) | 3.18
* CC(C)C(C)Nc1c(-c2scnc2Cl)c(Cl)nc2nc(C3CC3)nn12 (stereo not drawn) | 3.23
* CC(C)CC(C)Nc1c(-c2ccsc2)c(Cl)nc2nc(C3CC3)nn12 (stereo not drawn) | 4.14
* CC(C)c1nc2nc(Cl)c(-c3ncncc3F)c(NC(C)C(C)C)n2n1 (stereo not drawn) | 3.02
* CC(Nc1c(-c2ncncc2Cl)c(Cl)nc2nc(C3CC3)nn12)C(C)(C)C (stereo not drawn) [Example 35] | 3.39
* C=C(C)CN(CC)c1c(-c2ccsc2)c(Cl)nc2nc(C3CC3)nn12 | 4.13
* CC(C)C(C)Nc1c(-c2ncncc2Cl)c(Cl)nc2nc(C3CC3)nn12 (stereo not drawn) [Example 32] | 3.12
* CC1CCN(c2c(-c3ncncc3F)c(Cl)nc3nc(C4CC4)nn23)CC1 | 3.02
* Clc1nc2nc(C3CC3)nn2c(N2CCOCC2)c1-c1ccsc1 | 2.51
* CC(C)C(C)Nc1c(-c2ccccn2)c(Cl)nc2nc(C3CC3)nn12 (stereo not drawn) | 2.63
* CC(Nc1c(-c2ncccc2C(F)(F)F)c(Cl)nc2nc(C3CC3)nn12)C(F)(F)F (stereo not drawn) | 3.01
* CC(C)Nc1c(-c2ccsc2)c(Cl)nc2nc(C3CC3)nn12 | 3.07
* CC(Nc1c(-c2ncncc2Cl)c(Cl)nc2nc(C3CC3)nn12)C(C)(C)C (stereo not drawn) [Example 33] | 3.50
* COCCN(C)c1c(-c2ccsc2)c(Cl)nc2nc(C3CC3)nn12 | 2.91

----------
- assay-text: logP determination through HPLC (EEC directive 79/831 Annex V. A8, gradient method, acetonitrile/0.1% aqueous phosphoric acid)
- Format: physicochemical
- assay-context: Table 1, compounds of formula (I); HPLC gradient method, acetonitrile/0.1% aqueous phosphoric acid
assay-readout: logP

[1] CC(Nc1c(-c2ncccc2[N+](=O)[O-])c(Cl)nc2nc(C3CC3)nn12)C(C)(C)C (stereo not shown)
[2] CC(C)C(C)Nc1c(-c2cc(Cl)sc2Cl)c(Cl)nc2nc(C3CC3)nn12 (stereo not shown)
Req: I'm curious whether 1 or 2 has the smaller logP number. Which is it? Let me know the label of the one you choose.
Resp: 1

----------
- assay-text: logP determination through HPLC (EEC directive 79/831 Annex V. A8, gradient method, acetonitrile/0.1% aqueous phosphoric acid)
- Format: physicochemical
- assay-context: Table 2, precursors of formula (II)
assay-readout: logP

* Cc1nc2nc(Cl)c(-c3cncnc3C(F)(F)F)c(Cl)n2n1 | 2.10
* Cc1nc2nc(Cl)c(-c3ncccc3[N+](=O)[O-])c(Cl)n2n1 | 1.68
* Clc1cncnc1-c1c(Cl)nc2nc(C3CC3)nn2c1Cl | 2.23

----------
- assay-text: logP determination through HPLC (EEC directive 79/831 Annex V. A8, gradient method, acetonitrile/0.1% aqueous phosphoric acid)
- Format: physicochemical
- assay-context: Table 1, compounds of formula (I); HPLC gradient method, acetonitrile/0.1% aqueous phosphoric acid
assay-readout: logP

• C[C@H](Nc1c(-c2ncc([N+](=O)[O-])cc2Cl)c(Cl)nc2nc(C3CC3)nn12)C(F)(F)F = 3.26
• CC(Nc1c(-c2ncncc2F)c(Cl)nc2nc(C3CC3)nn12)C(F)(F)F (stereo not shown) = 2.57
• CC(C)C(C)Nc1c(-c2ccsc2)c(Cl)nc2nc(C3CC3)nn12 (stereo not shown) = 3.81
• CC(C)c1nc2nc(Cl)c(-c3ncncc3F)c(NC(C)C(C)(C)C)n2n1 (stereo not shown) = 3.47

----------
- assay-text: logP determination through HPLC (EEC directive 79/831 Annex V. A8, gradient method, acetonitrile/0.1% aqueous phosphoric acid)
- Type: physicochemical
- assay-context: Table 1, compounds of formula (I); HPLC gradient method, acetonitrile/0.1% aqueous phosphoric acid
assay-readout: logP

- Clc1nc2nc(C3CC3)nn2c(NC2CCCC2)c1-c1ccsc1: 3.63
- CC1CCN(c2c(-c3ncccc3C(F)(F)F)c(Cl)nc3nc(C4CC4)nn23)CC1: 3.77
- COCCN(C)c1c(-c2cc(Cl)sc2Cl)c(Cl)nc2nc(C3CC3)nn12: 4.08
- CCC(C)Nc1c(-c2cc(Cl)sc2Cl)c(Cl)nc2nc(C3CC3)nn12 (centres unmarked): 4.56
- Cc1nc2nc(Cl)c(-c3ncncc3F)c(NC(C)C(C)(C)C)n2n1 (centres unmarked): 2.54

[1] CC1CCN(c2c(-c3ncncc3Cl)c(Cl)nc3nc(C4CC4)nn23)CC1
[2] Clc1cc(-c2c(Cl)nc3nc(C4CC4)nn3c2N2CCCCCC2)c(Cl)s1
Req: Given the listed records, identify the one among 1 and 2 with higher logP. Let me know the label of the one you choose.
Resp: 2
(2: 5.14, 1: 3.30)

----------
- assay-text: logP determination through HPLC (EEC directive 79/831 Annex V. A8, gradient method, acetonitrile/0.1% aqueous phosphoric acid)
- Format: physicochemical
- assay-context: Table 1, compounds of formula (I); HPLC gradient method, acetonitrile/0.1% aqueous phosphoric acid
assay-readout: logP

• CC(C)c1nc2nc(Cl)c(-c3ncncc3F)c(NC(C)C(F)(F)F)n2n1 (stereo not shown) = 2.78
• Cc1nc2nc(Cl)c(-c3ncncc3Cl)c(NC(C)C(C)C)n2n1 (stereo not shown) = 2.31
• CC(C)C(C)Nc1c(-c2ccncc2Cl)c(Cl)nc2nc(C3CC3)nn12 (stereo not shown) = 3.09
• CC(C)c1nc2nc(Cl)c(-c3ncncc3Cl)c(NC(C)C(C)C)n2n1 (stereo not shown) = 3.17
• FC1(F)CCN(c2c(-c3ncccc3C(F)(F)F)c(Cl)nc3nc(C4CC4)nn23)CC1 = 3.20
• Cc1nc2nc(Cl)c(-c3ncccc3C(F)(F)F)c(NC(C)C(C)C)n2n1 (stereo not shown) = 2.68
• COCCNc1c(-c2cc(Cl)sc2Cl)c(Cl)nc2nc(C3CC3)nn12 = 3.55
• CC1CCCCN1c1c(-c2ccsc2)c(Cl)nc2nc(C3CC3)nn12 (stereo not shown) = 4.07
• CC1CN(c2c(-c3ccsc3)c(Cl)nc3nc(C4CC4)nn23)CC(C)O1 (stereo not shown) = 3.26
• Cc1nc2nc(Cl)c(-c3ncccc3C(F)(F)F)c(NC(C)C(C)(C)C)n2n1 (stereo not shown) = 2.99
